System: E. faecium
Test name: AK assay 384-well format, Prestwick library screening
Type: cell-based, Enterococcus faecium
Condition: Enterococcus faecium, 3 h; planktonic E. faecium; 50 μM final drug concentration; 384-well; cutoff for positive-scoring molecules 3-fold increase; read-out: AK-based Prestwick Library Screening Results: E. faecium (increase in extracellular AK activity)
Structures can show the parent of a compound that is named as a salt.
Parameter measured: fold induction at 50 µM

Compound	fold induction at 50 µM
Cc1scc2c1N(C(=O)CN1CCN(C)CC1)c1ccccc1NC2=O [Telenzepine dihydrochloride]	1.1
Cc1c(NC(=O)c2cccnc2)c(=O)n(-c2ccccc2)n1C	1
CO[C@@H]1[C@@H](O[C@@H]2O[C@H](C)[C@@H](O[C@H]3C[C@@](C)(O)[C@@H](OC(=O)CC(C)C)[C@H](C)O3)[C@H](N(C)C)[C@H]2O)[C@@H](CC=O)C[C@@H](C)[C@@H](O)/C=C/C=C/C[C@@H](C)OC(=O)C[C@H]1OC(C)=O	1

Alright, here's another compound for you.
Task item: Provide one value: measured fold induction at 50 µM of CCN(CC)Cc1cc(Nc2ccnc3cc(Cl)ccc23)ccc1O [Amodiaquin dihydrochloride dihydrate]
Reply: 1.1

* * *

System: P. aeruginosa
Test name: AK assay 384-well format, Prestwick library screening
Type: cell-based, Pseudomonas aeruginosa
Condition: Pseudomonas aeruginosa, 3 h, planktonic P. aeruginosa; 50 μM final drug concentration; 384-well; […]; read-out: AK-based Prestwick Library Screening Results: P. aeruginosa (increase in extracellular AK activity)
Where a name gives a salt, the structure may show the parent alone.
Parameter measured: fold induction at 50 µM
// return a plain number; no unit text

Task item: State its fold induction at 50 µM: COc1ccc(CN(CCN(C)C)c2ccccn2)cc1 [Pyrilamine maleate]
Reply: 1.1

Task item: # return recorded fold induction at 50 µM for entry NCCc1c[nH]c2ccc(O)cc12 [Serotonin hydrochloride]
Reply: 0.6

Task item: Identify fold induction at 50 µM associated with the compound C[N+]1(C)CCC(=C(c2ccccc2)c2ccccc2)CC1 [Diphemanil methylsulfate]
Reply: 1

Task item: Give the measured fold induction at 50 µM for Cc1ccsc1/C=C/C1=NCCCN1C [Morantel tartrate]
Reply: 1.2

Task item: Return value of fold induction at 50 µM for input CCOC(=O)[C@H](CCc1ccccc1)N[C@@H](C)C(=O)N1CCC[C@H]1C(=O)O [Enalapril maleate] , no commentary.
Reply: 1.2

* * *

Tested on: S. aureus strain USA300-0114
Test name: AK assay 384-well format, Prestwick library screening
Type: cell-based, Staphylococcus aureus
Condition: Staphylococcus aureus, USA300, 3 h, read-out: AK-based Prestwick Library Screening Results, S. aureus (increase in extracellular AK activity)
Counter-ions that a name gives are not always drawn.
Parameter measured: fold induction at 50 µM
Enter the number alone.

The examples below pair each entry with its known result.
Compound	fold induction at 50 µM
C[C@]12CC[C@@H](O)C[C@@H]1CC[C@@H]1[C@@H]2CC[C@]2(C)C(=O)CC[C@@H]12 [Androsterone]	0.5
O=C1CC[C@@]2(O)[C@H]3Cc4ccc(O)c5c4[C@@]2(CCN3CC2CC2)[C@H]1O5 [Naltrexone hydrochloride dihydrate]	0.7
CS(=O)(=O)Nc1ccc([N+](=O)[O-])cc1Oc1ccccc1 [Nimesulide]	0.7
COc1cc2c(c(OC)c1OC)-c1ccc(OC)c(=O)cc1[C@@H](NC(C)=O)CC2 [Colchicine]	1

Consider the additional compound presented here.
Task item: Answer with reported fold induction at 50 µM of C=CCN1CC[C@]23c4c5ccc(O)c4O[C@H]2C(=O)CC[C@@]3(O)[C@H]1C5 [Naloxone hydrochloride]
Reply: 0.7
